Each recorded value in this set is attributed to ChEMBL document CHEMBL1933047.

Items are presented alongside their recorded inhibition.
molecular target: Poly [ADP-ribose] polymerase 1 (Rattus norvegicus) (UniProt P27008); test: Inhibition of PARP1 in rat PC12 cells assessed as NAD+ recovery at 10 uM pre-treated for 1 hr before hydrogen peroxide addition followed by washout and compound treated again for 1 hr relative to 5H-phenanthridin-6-one; type: cell-based; details: PC-12
Sequence (P27008 whole entry): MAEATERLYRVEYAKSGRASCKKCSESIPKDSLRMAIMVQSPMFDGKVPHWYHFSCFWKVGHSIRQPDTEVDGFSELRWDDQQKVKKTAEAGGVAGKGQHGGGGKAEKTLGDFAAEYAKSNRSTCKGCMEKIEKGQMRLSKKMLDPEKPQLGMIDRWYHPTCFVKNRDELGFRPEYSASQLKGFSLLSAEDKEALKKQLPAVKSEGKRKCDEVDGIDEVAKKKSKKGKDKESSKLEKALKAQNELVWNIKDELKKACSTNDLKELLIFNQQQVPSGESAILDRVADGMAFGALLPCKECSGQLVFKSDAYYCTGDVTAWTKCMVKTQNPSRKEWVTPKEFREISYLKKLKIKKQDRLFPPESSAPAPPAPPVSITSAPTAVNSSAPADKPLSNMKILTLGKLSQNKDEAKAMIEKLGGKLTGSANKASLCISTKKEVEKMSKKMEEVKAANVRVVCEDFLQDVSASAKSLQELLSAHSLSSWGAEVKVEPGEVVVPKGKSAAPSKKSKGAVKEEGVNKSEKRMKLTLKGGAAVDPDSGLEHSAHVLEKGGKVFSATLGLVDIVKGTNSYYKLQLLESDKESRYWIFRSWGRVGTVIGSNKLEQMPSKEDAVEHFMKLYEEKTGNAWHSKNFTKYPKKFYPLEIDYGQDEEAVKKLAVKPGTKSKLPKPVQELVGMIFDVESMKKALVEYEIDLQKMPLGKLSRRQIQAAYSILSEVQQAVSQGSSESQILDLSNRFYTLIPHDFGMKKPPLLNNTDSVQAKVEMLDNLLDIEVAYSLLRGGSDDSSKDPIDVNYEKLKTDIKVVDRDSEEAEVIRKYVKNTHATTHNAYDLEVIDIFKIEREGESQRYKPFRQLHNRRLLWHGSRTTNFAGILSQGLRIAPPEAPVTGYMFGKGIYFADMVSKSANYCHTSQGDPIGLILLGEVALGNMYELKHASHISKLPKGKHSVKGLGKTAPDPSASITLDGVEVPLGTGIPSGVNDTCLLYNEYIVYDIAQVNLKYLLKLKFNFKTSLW

substance-smiles | inhibition
NCCNC(=O)CCC(=O)c1ccc2[nH]c3c4c(c5c(c3c2c1)C(=O)NC5=O)CCC4 | 32%
O=C(CN1CCOCC1)c1ccc2[nH]c3c4c(c5c(c3c2c1)C(=O)NC5=O)CCC4 | 63%
O=C(CCC(=O)c1ccc2[nH]c3c4c(c5c(c3c2c1)C(=O)NC5=O)CCC4)NCCO | 26%
CN1CCN(CC(=O)c2ccc3[nH]c4c5c(c6c(c4c3c2)C(=O)NC6=O)CCC5)CC1 | 43%
O=C1CCC(c2ccc3[nH]c4c5c(c6c(c4c3c2)C(=O)NC6=O)CCC5)=NN1 | 49%
